Item-by-item account of MIC
# Test system: S. epidermidis ATCC 12228
# run-description: Antibacterial activity: MIC/MBC determination and disc-diffusion
# Assay type: cell-based
# condition-details: Staphylococcus epidermidis, ATCC12228; S. epidermidis ATCC 12228; read-out: MIC
API: value field is a number in µg/mL; no unit string.

Some compounds with known MIC results, for comparison:
C[Si]1(C)OB(O)c2ccc(SC3CC(=O)N(c4ccc(Br)c(C(F)(F)F)c4)C3=O)c(F)c21 (stereo not drawn) [Compound 17] | 12.5
C[Si]1(C)OB(O)c2cc(F)c(SCCC#N)c(F)c21 [Compound 6] | 50

Challenge: Need MIC of C[Si]1(C)OB(O)c2cc(F)c(SCCC(=O)OCCCCCC[n+]3ccccc3)c(F)c21 [Compound 18] , thanks.
Response given: 50

Challenge: What measured MIC goes with C[Si]1(C)OB(O)c2cc(F)c(SCCC(=O)Nc3ncccn3)c(F)c21 [Compound 9] ?
Response given: 50

Challenge: Consider the compound Cc1cc(NC(=O)CCSc2c(F)cc3c(c2F)[Si](C)(C)OB3O)no1 [Compound 11] and give its measured MIC.
Response given: 25

Challenge: For C[Si]1(C)OB(O)c2ccc(SCCC(=O)OCCCCCC[n+]3ccccc3)c(F)c21 [Compound 19] , what is its reported MIC?
Response given: 25

Challenge: MIC for C[Si]1(C)OB(O)c2ccc(SC3CC(=O)NC3=O)c(F)c21 (stereo not drawn) [Compound 13] ?
Response given: 25

Challenge: Entry C[Si]1(C)OB(O)c2cc(F)c(S)c(F)c21 [Compound 1e] : reported MIC = ?
Response given: 1.56

Challenge: Please report the recorded MIC for C[Si]1(C)OB(O)c2cc(F)c(SC3CC(=O)N(c4ccc(F)cc4)C3=O)c(F)c21 (stereo not drawn) [Compound 14] .
Response given: 50

---

viability of MRC-5: recorded values
# System: Human normal lung fibroblasts MRC-5
# run-description: MTT-based viability (cytotoxicity) assay
# condition-details: 400 µg·mL−1, 48 h

Challenge: Bench note: what viability of MRC-5 did CCOP(=O)(OCC)Sc1c(F)cc2c(c1F)[Si](C)(C)OB2O show?
Response given: 60.5±3.8 % of control ± SD

Challenge: What viability of MRC-5 value was documented for this molecule, C[Si]1(C)OB(O)c2ccc(SC3CC(=O)N(c4ccc(F)cc4)C3=O)c(F)c21 (stereo not shown) ?
Response given: 6.7±0.1 % of control ± SD

Challenge: Requested field: viability of MRC-5. Item: C[Si]1(C)OB(O)c2cc(F)c(SCCS(=O)(=O)c3ccccc3)c(F)c21
Response given: 3.4±0.9 % of control ± SD

Challenge: Would you mind telling me what viability of MRC-5 value was observed for C[Si]1(C)OB(O)c2cc(F)c(SC3CC(=O)N(c4ccc(Br)c(C(F)(F)F)c4)C3=O)c(F)c21 (stereo not shown) ?
Response given: 0.1±0.0 % of control ± SD

---

MIC values by entry
# System: C. tropicalis IBA 171
# run-description: Antifungal activity: MIC/MFC, disc-diffusion
# Type: cell-based
# condition-details: Candida tropicalis, IBA171; read-out: MIC
Respond with the bare value in µg/mL.

# annotated cases, reported MIC shown
C[Si]1(C)OB(O)c2ccc(SCCC(=O)OCCCCCC[n+]3ccccc3)c(F)c21 [Compound 19] | 400
C[Si]1(C)OB(O)c2cc(F)c(SC3CC(=O)N(c4ccc(Br)c(C(F)(F)F)c4)C3=O)c(F)c21 (centres unmarked) [Compound 16] | 50
OC(Cn1cncn1)(Cn1cncn1)c1ccc(F)cc1F [FL, fluconazole, reference compound] | 0.38
C[Si]1(C)OB(O)c2ccc(SC3CC(=O)N(c4ccc(Br)c(C(F)(F)F)c4)C3=O)c(F)c21 (centres unmarked) [Compound 17] | 200
C[Si]1(C)OB(O)c2cc(F)c(SCCC(=O)OCCCCCC[n+]3ccccc3)c(F)c21 [Compound 18] | 400

Challenge: Using the record for C[Si]1(C)OB(O)c2cc(F)c(SC3CC(=O)N(c4ccc(F)cc4)C3=O)c(F)c21 (centres unmarked) [Compound 14] , report its MIC.
Response given: 200

Challenge: Reported MIC for C[Si]1(C)OB(O)c2ccc(SCC(=O)c3ccccc3)c(F)c21 [Compound 23] : what is it?
Response given: 400

---

# study-system: S. aureus MRSA LeuRS (Staphylococcus aureus)
# Sequence (P67513 whole entry): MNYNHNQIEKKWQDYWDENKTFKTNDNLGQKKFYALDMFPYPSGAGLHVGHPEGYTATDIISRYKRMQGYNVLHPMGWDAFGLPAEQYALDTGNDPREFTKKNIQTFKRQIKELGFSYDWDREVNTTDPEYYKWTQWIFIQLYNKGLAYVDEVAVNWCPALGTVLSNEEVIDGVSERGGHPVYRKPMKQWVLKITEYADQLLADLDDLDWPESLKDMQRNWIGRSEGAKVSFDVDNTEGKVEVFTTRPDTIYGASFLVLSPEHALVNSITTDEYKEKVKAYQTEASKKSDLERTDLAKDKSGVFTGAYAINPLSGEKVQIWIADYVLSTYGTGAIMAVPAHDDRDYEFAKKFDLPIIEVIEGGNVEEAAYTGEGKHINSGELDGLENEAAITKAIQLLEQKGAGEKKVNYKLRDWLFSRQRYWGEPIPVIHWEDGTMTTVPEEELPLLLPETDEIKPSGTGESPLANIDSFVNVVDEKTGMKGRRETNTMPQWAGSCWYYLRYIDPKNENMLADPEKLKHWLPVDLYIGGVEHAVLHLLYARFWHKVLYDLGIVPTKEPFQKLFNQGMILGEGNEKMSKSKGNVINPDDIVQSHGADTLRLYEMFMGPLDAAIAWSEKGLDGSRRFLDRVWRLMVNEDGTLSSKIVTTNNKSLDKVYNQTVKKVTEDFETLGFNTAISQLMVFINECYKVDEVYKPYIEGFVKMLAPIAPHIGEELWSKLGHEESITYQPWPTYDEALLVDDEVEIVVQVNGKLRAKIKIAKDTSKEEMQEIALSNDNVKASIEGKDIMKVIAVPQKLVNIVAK
pIC50: −log10 of the molar value.
parameter: pIC50

Challenge: Please state recorded pIC50 (tested on S. aureus MRSA LeuRS (Staphylococcus aureus)) of C[Si]1(C)OB(O)c2cc(F)c(SCCS(=O)(=O)c3ccccc3)c(F)c21
Response given: < 3.70

---

# Test system: Human normal lung fibroblasts MRC-5
# run-description: MTT-based viability (cytotoxicity) assay
# condition-details: 50 µg·mL−1, 48 h
Some compounds, each annotated with its measured viability of MRC-5.

# annotated cases, reported viability of MRC-5 shown
C[Si]1(C)OB(O)c2cc(F)c(S(=O)(=O)Nc3ccc(F)cc3)c(F)c21 | 65.5±1.8 % of control ± SD
CCOP(=O)(OCC)Sc1c(F)cc2c(c1F)[Si](C)(C)OB2O | 78.2±3.0 % of control ± SD
C[Si]1(C)OB(O)c2cc(F)c(S(=O)(=O)N3CCOCC3)c(F)c21 | 80.8±3.4 % of control ± SD
CC(=O)CSc1ccc2c(c1F)[Si](C)(C)OB2O | 94.4±2.1 % of control ± SD

Below: the item to evaluate.
Challenge: Quick check: viability of MRC-5 of C[Si]1(C)OB(O)c2cc(F)c(SCCC#N)c(F)c21 ?
Response given: 108.3±3.0 % of control ± SD

---

# Test system: S. aureus ATCC 43300 MRSA
# run-description: Antibacterial activity: MIC/MBC determination and disc-diffusion
# Format: cell-based
# condition-details: Staphylococcus aureus; S. aureus ATCC 43300 MRSA; read-out: MBC (first MBC where Eagle effect)
Items are presented alongside their recorded MBC.
The answer is to be given in µg/mL; state only the numeric part.

Some molecules with recorded MBC:
C[Si]1(C)OB(O)c2cc(F)c(SCCC(=O)Nc3ncccn3)c(F)c21 [Compound 9] | 400
CC(=O)CSc1ccc2c(c1F)[Si](C)(C)OB2O [Compound 22] | 200
C[Si]1(C)OB(O)c2ccc(SC(=O)c3ccc(C(F)(F)F)cc3)c(F)c21 [Compound 25] | 25
C[Si]1(C)OB(O)c2cc(F)c(SC3CC(=O)N(c4ccc(Br)c(C(F)(F)F)c4)C3=O)c(F)c21 (stereo not drawn) [Compound 16] | 100
C[Si]1(C)OB(O)c2cc(F)c(SCCC(=O)OCCCCCC[n+]3ccccc3)c(F)c21 [Compound 18] | 200
C[Si]1(C)OB(O)c2cc(F)c(S)c(F)c21 [Compound 1e] | 25

Challenge: Bench note: what MBC did Cc1cc(NC(=O)CCSc2c(F)cc3c(c2F)[Si](C)(C)OB3O)no1 [Compound 11] show?
Response given: 400

---

Known MBC of a selection of molecules
# System: E. faecium ATCC 6057
# run-description: Antibacterial activity: MIC/MBC determination and disc-diffusion
# Assay type: cell-based
# condition-details: Enterococcus faecium, ATCC6057; E. faecium ATCC 6057
State the answer as a number, implicitly in µg/mL.

C[Si]1(C)OB(O)c2cc(F)c(S)c(F)c21 | 400

Challenge: Would you mind telling me what MBC value was observed for CC(=O)CCSc1c(F)cc2c(c1F)[Si](C)(C)OB2O ?
Response given: 200

---

# MIC values compiled below
# Test system: S. aureus NMI 1712 K MRSA
# run-description: Antibacterial activity against clinical MRSA: MIC/MBC
# Format: cell-based
# condition-details: Staphylococcus aureus; NMI 1712 K MRSA; read-out: MIC
Just the number please, in mg/L, no unit attached.

Illustrative cases are given below, each with its answer.
C[Si]1(C)OB(O)c2cc(F)c(SCCC#N)c(F)c21 | 12.5
C[Si]1(C)OB(O)c2ccc(SC(=O)c3ccc(C(F)(F)F)cc3)c(F)c21 | 12.5
CC(=O)NC[C@H]1CN(c2ccc(N3CCOCC3)c(F)c2)C(=O)O1 [LIN, linezolid, reference compound] | 1

Challenge: I'm curious: which MIC was measured for C[Si]1(C)OB(O)c2cc(F)c(SC3CC(=O)NC3=O)c(F)c21 (stereo not shown) tested on S. aureus NMI 1712 K MRSA?
Response given: 12.5

Challenge: Identify the measured MIC of C[Si]1(C)OB(O)c2ccc(SCC(=O)c3ccccc3)c(F)c21 for S. aureus NMI 1712 K MRSA.
Response given: 3.12

Challenge: Hello, I am looking for reported MIC with S. aureus NMI 1712 K MRSA for CC(=O)CSc1ccc2c(c1F)[Si](C)(C)OB2O . Could you help?
Response given: 6.25

Challenge: So what MIC did C[Si]1(C)OB(O)c2cc(F)c(SCCS(=O)(=O)c3ccccc3)c(F)c21 get with S. aureus NMI 1712 K MRSA?
Response given: 6.25
